- procedure-details: Mice pharmacokinetic evaluation (LC-MS/MS of plasma)
- Assay type: in vivo, ICR mice
- reported-conditions: male, ICR, mouse, plasma, po, 10 mg/kg, oral 10 mg/kg, 0.50 h, Mean; read-out: Plasma concentration of active compound
recorded-metric: concentration at 0.5 h (ng/mL)

>>> reading("CSc1nccc(N2CCC(N(C)Cc3ccc(C#N)cc3)CC2)n1")
97.5

----------
Endpoint: pKd. System: Hsp70 (Homo sapiens). Items follow.
Sequence (P0DMV8 whole entry): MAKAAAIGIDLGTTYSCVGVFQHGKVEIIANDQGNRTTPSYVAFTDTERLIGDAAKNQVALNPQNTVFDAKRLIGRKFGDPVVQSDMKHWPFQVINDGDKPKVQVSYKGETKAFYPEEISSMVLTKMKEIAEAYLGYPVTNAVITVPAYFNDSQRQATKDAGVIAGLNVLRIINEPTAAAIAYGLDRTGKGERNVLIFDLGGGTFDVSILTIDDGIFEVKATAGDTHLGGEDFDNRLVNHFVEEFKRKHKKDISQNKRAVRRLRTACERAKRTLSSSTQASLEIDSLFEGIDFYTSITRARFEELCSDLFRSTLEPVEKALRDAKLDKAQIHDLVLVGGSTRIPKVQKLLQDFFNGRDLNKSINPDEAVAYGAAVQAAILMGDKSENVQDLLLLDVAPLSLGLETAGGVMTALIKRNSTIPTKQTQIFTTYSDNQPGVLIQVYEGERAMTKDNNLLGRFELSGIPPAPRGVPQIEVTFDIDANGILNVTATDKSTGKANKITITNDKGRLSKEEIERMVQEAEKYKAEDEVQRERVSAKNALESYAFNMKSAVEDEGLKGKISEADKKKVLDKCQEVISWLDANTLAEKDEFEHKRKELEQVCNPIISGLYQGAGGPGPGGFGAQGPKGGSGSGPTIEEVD
pKd: −log10 of the molar value.
recorded-metric: pKd

>>> reading("COc1nccc(N2CCC(N(C)Cc3ccc(F)cc3)CC2)n1")
6.55
>>> reading("CN(Cc1ccccc1C#N)C1CCN(Cc2cnc(Cl)s2)CC1")
6.61
>>> reading("CSc1nccc(N2CCC(N(C)Cc3ccc(F)cc3)CC2)n1")
6.69
>>> reading("Fc1ccc(CNC2CCN(Cc3cnc(Cl)s3)CC2)cc1")
6.70
>>> reading("CSc1nccc(N2CCC(N(C)Cc3ccc(C#N)cc3)CC2)n1")
6.61
